Molecular target: BLT2 (Homo sapiens)
Assay: cAMP assay
Type: cell-based
OBSERVED PROPERTY: pIC50
One number for each entry, as −log10 of the molar value.

Annotate the molecule "CCCCC[C@H](O)/C=C/C=C/C/C=C\CCCC(=O)O" with its measured pIC50.
9.00

###

Target: BLT2 (Homo sapiens, UniProt Q9NPC1)
Sequence (Q9NPC1 1-358): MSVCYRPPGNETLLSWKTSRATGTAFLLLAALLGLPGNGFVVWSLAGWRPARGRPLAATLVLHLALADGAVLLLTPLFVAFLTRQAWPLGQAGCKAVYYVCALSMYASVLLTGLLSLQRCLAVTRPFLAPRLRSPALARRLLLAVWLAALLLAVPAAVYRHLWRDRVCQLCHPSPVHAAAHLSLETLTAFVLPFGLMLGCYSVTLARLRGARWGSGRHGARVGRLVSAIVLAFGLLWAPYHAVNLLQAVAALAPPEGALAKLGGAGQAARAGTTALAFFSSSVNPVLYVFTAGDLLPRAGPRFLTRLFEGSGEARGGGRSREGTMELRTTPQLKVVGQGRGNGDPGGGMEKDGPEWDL
Assay: [3H]LTB4 displacement assay, membrane preparations of CHO-BLT2 cells
Format: binding
OBSERVED PROPERTY: pIC50
Answers are plain numbers, as −log10 of the molar value.

Annotate the compound CCCCC[C@H](O)/C=C/C=C/C/C=C\CCCC(=O)O [12-HHT] with its measured pIC50.
8.55
